- target_entity: T1, ST2 on KU812 cells (UniProt Q01638 19-556, limits assumed)
- T1 sequence (looked up): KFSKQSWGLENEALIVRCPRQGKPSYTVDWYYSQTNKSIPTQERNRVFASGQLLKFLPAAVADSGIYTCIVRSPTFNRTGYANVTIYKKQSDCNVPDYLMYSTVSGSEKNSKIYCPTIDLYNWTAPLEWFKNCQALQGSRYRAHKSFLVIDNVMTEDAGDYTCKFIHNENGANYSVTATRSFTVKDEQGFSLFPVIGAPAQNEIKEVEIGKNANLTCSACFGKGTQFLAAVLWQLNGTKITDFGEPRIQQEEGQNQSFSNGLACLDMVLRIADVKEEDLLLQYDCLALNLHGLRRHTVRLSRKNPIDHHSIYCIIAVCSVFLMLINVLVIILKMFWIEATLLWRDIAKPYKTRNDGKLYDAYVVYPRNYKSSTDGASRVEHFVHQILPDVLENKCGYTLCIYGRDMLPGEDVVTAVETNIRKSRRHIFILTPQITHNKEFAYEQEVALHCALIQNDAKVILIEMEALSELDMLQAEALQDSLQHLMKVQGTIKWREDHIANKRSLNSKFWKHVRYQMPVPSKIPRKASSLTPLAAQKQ
- method_summary: cell-based or functional assay
endpoint_name: Maximum inhibition rate (%), KU812 IL-5 production
Could you give me the number in %? Just the number is fine.

Lookup: Supply Maximum inhibition rate (%), KU812 IL-5 production value. Item: 5888-379H1+L2 (antibody, V domains shown, murine antibody) VH: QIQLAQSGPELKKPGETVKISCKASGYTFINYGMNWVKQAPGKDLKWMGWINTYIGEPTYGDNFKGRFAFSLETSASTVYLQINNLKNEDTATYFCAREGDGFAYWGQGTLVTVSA VL: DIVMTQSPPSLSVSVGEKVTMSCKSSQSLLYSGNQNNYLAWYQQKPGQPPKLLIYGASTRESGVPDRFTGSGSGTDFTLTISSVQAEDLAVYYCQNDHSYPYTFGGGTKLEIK
Found: 92.7
